Numbers sourced from PubChem BioAssay AID504832.

# PROTOCOL SUMMARY: Primary qHTS for delayed death inhibitors of the malarial parasite plastid, 48 hour incubation
# ASSAY CONDITIONS: P. falciparum luciferase growth in erythrocytes; series mostly up to 28.7 µM
Among all 310,000 compounds or so, about 18,000 (5.8%) were called active. Roughly 22% stayed inconclusive and do not appear here. Calls follow the shape of the dose curve; as a rule, active = well fitted inhibition curve with a large enough effect; inconclusive = small, poorly fitted or top-dose-only effect, or another doubt; inactive = no such curve, though single readings can be large or run the other way. The entries come from a sample that favours actives as a whole.
Parameter call: string, one of active, inactive

COMPOUND | ASSIGNED LABEL
O=C1COc2ccc(S(=O)(=O)NCCc3ccc(Cl)cc3)cc2N1 | inactive
O=S(=O)(Nc1ccc(-c2ccc(N3CCOCC3)nn2)cc1)c1cc(Cl)ccc1Cl | inactive
O=S(=O)(Nc1cc(Cl)ccc1N1CCOCC1)c1ccccc1Cl | active

q: Recorded test call requested for Cc1csc(SCC(=O)N(c2ccccc2)C(C)C)n1
a: active

q: Another compound to check: Cc1ccc(C(C)C)c(OCCSc2nc3ccccc3n2CC(=O)O)c1
a: inactive

q: Another compound to check: CC(C)Oc1ccc(C(CC(=O)N2CCOCC2)C(C)C)cc1 (stereo not drawn)
a: inactive

q: Another compound to check: [2H]C(CCOS(N)(=O)=O)c1ccccc1 (stereo not drawn)
a: inactive

q: Another compound to check: COc1ccc(NC(=O)CSc2nc(C)cs2)cc1
a: inactive

* * *

# PROTOCOL SUMMARY: Primary qHTS for delayed death inhibitors of the malarial parasite plastid, 48 hour incubation
# ASSAY CONDITIONS: P. falciparum luciferase growth in erythrocytes; series mostly up to 28.7 µM
Out of some 310,000 compounds screened, about 18,000 (5.8%) were called active. Another 22% or so got no clear call; they are omitted. The call rests on the fitted dose curve; in most records, active means well fitted inhibition curve with a large enough effect; inconclusive means small, poorly fitted or top-dose-only effect, or another doubt; inactive means no such curve, though single readings can be large or run the other way. Shown is part of a subset that was picked to be rich in actives.
Parameter call: string, one of active, inactive

Some entries whose results are on file:
COMPOUND | ASSIGNED LABEL
N#Cc1ccc(C(=O)OCC(=O)NC(=O)NC2CCCCC2)cc1 | inactive
N/C(=N\OC(=O)/C=C/c1ccccc1)c1ccc(Br)cc1 | inactive
COc1ccc(C)cc1N(C(=O)Cn1nnc(-c2ccc(C)o2)n1)C(C(=O)NC1CCCC1)c1ccncc1 (stereo not given) | active
COc1ccc(NC(=O)CCCC(=O)c2ccccc2)cc1 | inactive
O=C(CSc1nc(=O)n2ccccc2n1)Nc1ccc2c(c1)OCCO2 | inactive
COc1ccc(C2C(C(=O)Nc3ccccc3OC)=C(C)Nc3nnnn32)c(OC)c1 (stereo not given) | inactive
Cc1cc(NC(=O)CCC(=O)N(c2ccccc2)C(C(=O)NC2CCCC2)c2ccncc2)no1 (stereo not given) | inactive
O=C(N/C(=C\c1ccc([N+](=O)[O-])cc1)C(=O)N1CCOCC1)c1cccc(Br)c1 | inactive
CCCn1c(N)c(C(=O)CSc2nnc3n2CCCCC3)c(=O)[nH]c1=O | inactive
CC(=O)Nc1ccc(S(=O)(=O)Nc2cc(C)cn(Cc3ccc(C)cc3)c2=O)cc1 | inactive

q: Recorded test call requested for COc1ccccc1NC(=O)C1=C(C)Nc2nnnn2C1c1cccc(Br)c1 (stereo not given)
a: inactive

q: Another compound to check: N/C(=N\OC(=O)Cc1ccccc1[N+](=O)[O-])c1ccc(Br)cc1
a: inactive

q: Another compound to check: O=C(CCNS(=O)(=O)c1cccs1)N1CCN(c2ccc(F)cc2)CC1
a: inactive

q: Another compound to check: Cc1ccc(NC(=S)Nc2ccc(F)cc2)cc1
a: inactive

q: Another compound to check: CSCCC(NC(=O)COc1ccccc1)C(=O)OCCOc1ccc(F)cc1 (stereo not given)
a: inactive

q: Another compound to check: O=C(Nc1ccc(N2CCCCC2)cc1)c1cc(S(=O)(=O)N2CCOCC2)ccc1F
a: inactive

q: Another compound to check: CCn1c(SCC(=O)NC2CC2)nnc1-c1ccccc1OC
a: inactive

q: Another compound to check: CCCCNC(=O)N1CCCC(N(C)CCc2ccc(OC)c(OC)c2)C1 (stereo not given)
a: inactive

q: Another compound to check: Cc1sc(NC(=O)c2ccc3ncsc3c2)c(C(N)=O)c1C
a: inactive

q: Another compound to check: COC(=O)C1=C(Nc2ccc(C)cc2)C=C(C)C(C(=O)OC)C1c1ccc(F)cc1 (stereo not given)
a: active

q: Another compound to check: COc1ccc(C2CC(c3ccccc3)=NN2C(=O)CSc2nccc(=O)[nH]2)cc1 (stereo not given)
a: inactive

q: Another compound to check: O=C(Cn1nnc(-c2ccccc2)n1)NC(=O)NC1CCCC1
a: inactive

q: Another compound to check: Cc1cccc(NC(=O)COC(=O)CCc2ccccc2)c1C
a: inactive

q: Another compound to check: COc1ccccc1C(=O)NCCC(=O)NC(C)CCc1ccccc1 (stereo not given)
a: inactive

q: Another compound to check: Nc1cccc(CCc2nc3ccccc3[nH]2)c1
a: inactive

* * *

# PROTOCOL SUMMARY: Primary qHTS for delayed death inhibitors of the malarial parasite plastid, 48 hour incubation
# ASSAY CONDITIONS: P. falciparum luciferase growth in erythrocytes; series mostly up to 28.7 µM
In all, about 310,000 compounds went through this assay and about 18,000 (5.8%) were called active. About 22% were inconclusive and are not listed. Calls follow the shape of the dose curve; as a rule, active = well fitted inhibition curve with a large enough effect; inconclusive = small, poorly fitted or top-dose-only effect, or another doubt; inactive = no such curve, though single readings can be large or run the other way. Shown is part of a subset that was picked to be rich in actives.
Parameter call: string, one of label 1 = active, label 0 = inactive

Some entries whose results are on file:
COMPOUND | ASSIGNED LABEL
O=C(CCC1CCCC1)N=C1SC2CS(=O)(=O)CC2N1Cc1ccccc1 (stereo not drawn) | label 0
CCCCCCn1c(SCC(=O)c2ccccc2)nc2c1c(=O)[nH]c(=O)n2C | label 0
CN(CC(=O)Nc1ccc(F)c(F)c1F)C(=O)C1CC(=O)N(C2CCCC2)C1 (stereo not drawn) | label 0
Cc1cc(NC(=O)CCC(=O)N(Cc2ccccc2)C(C(=O)NC2CCCC2)c2ccc(C)o2)no1 (stereo not drawn) | label 0
COc1ccc(C(=O)/C=C/c2ccc(OC3CSC3)cc2)cc1 | label 0
COc1ccc(/C=C/C(=O)c2cc(Br)ccc(=O)c2O)cc1 | label 1

q: Recorded test call requested for COc1ccccc1N(CC(=O)Nc1ccccc1C(=O)N1CCCC1)S(C)(=O)=O
a: label 0

q: Another compound to check: CCC(C)Sc1nc2c(c(=O)[nH]c(=O)n2C)n1CC(O)COc1cccc2ccccc12 (stereo not drawn)
a: label 1

q: Another compound to check: CCOC(=O)C1CCN(S(=O)(=O)c2ccc3c(c2)N(C(C)=O)CCO3)CC1
a: label 0

q: Another compound to check: CCCC(=O)N(CCN1CCOCC1)c1nc2ccc(OCC)cc2s1
a: label 0

* * *

# PROTOCOL SUMMARY: Primary qHTS for delayed death inhibitors of the malarial parasite plastid, 48 hour incubation
# ASSAY CONDITIONS: P. falciparum luciferase growth in erythrocytes; series mostly up to 28.7 µM
# Description: The goal of this screen is to discover new antimalarial compounds that act by inhibiting the development of the apicoplast in the malarial parasite Plasmodium falciparum. […] We have developed a cell-based assay that measures parasite growth based on the expression of an integrated copy of a firefly luciferase reporter. […] Growth inhibition is detected by a decrease in luciferase activity. […]
Hit rate of the full screen: of about 310,000 compounds, about 18,000 (5.8%) were called active. Another 22% or so got no clear call; they are omitted. Calls come from the whole dose curve; as a rule, active = well fitted inhibition curve with a large enough effect; inconclusive = small, poorly fitted or top-dose-only effect, or another doubt; inactive = no such curve, though single readings can be large or run the other way. For the sample, actives were picked, then their nearest neighbours and some compounds at random.
Parameter call: string, one of active, inactive

COMPOUND | ASSIGNED LABEL
Cc1ccc(NC(=O)CN2CCC3(O)CCCCC3C2c2ccc3c(c2)OCO3)c(C)c1 (centres undefined) | active
COc1cccc(NC(=O)C2c3cc(OC)c(OC)cc3C(=O)N(C)C2c2cccnc2)c1 (centres undefined) | active
CCOC(=O)c1c(NC(=O)CCC(=O)NCc2ccco2)sc2c1CCCC2 | inactive
CCOC(=O)c1c(NC(=O)Cn2nc(C(F)(F)F)cc2C)sc2c1CCC2 | active
Cc1ccc(C)c(NS(=O)(=O)c2c(C)[nH]c(C)c2C(=O)N2CCCCC2)c1 | inactive
O=C(Nc1ccccc1)N1CCN(C(=O)Nc2ccccc2)CC1 | inactive
CCOC(=O)c1c(NC(=O)CSc2nnc(C)c(=O)[nH]2)sc2c1CCC2 | inactive
O=C1CSc2ccc(S(=O)(=O)NCc3ccccc3)cc2N1 | inactive

Continue with the next compound.
q: Recorded test call requested for Cc1ccccc1NC(=O)CSc1nc2ccc(Nc3nc(N4CCOCC4)nc(N4CCOCC4)n3)cc2s1
a: inactive

* * *

# PROTOCOL SUMMARY: Primary qHTS for delayed death inhibitors of the malarial parasite plastid, 48 hour incubation
# ASSAY CONDITIONS: P. falciparum luciferase growth in erythrocytes; series mostly up to 28.7 µM
Hit rate of the full screen: of about 310,000 compounds, about 18,000 (5.8%) were called active. Not shown: some 22% with an inconclusive outcome. Calls come from the whole dose curve; as a rule, active = well fitted inhibition curve with a large enough effect; inconclusive = small, poorly fitted or top-dose-only effect, or another doubt; inactive = no such curve, though single readings can be large or run the other way. The sample as a whole holds a higher share of actives than the screen did.
Parameter call: string, one of active, inactive

COMPOUND | ASSIGNED LABEL
Cc1ccc(CNS(=O)(=O)c2ccc3c(c2)N(C)CCO3)cc1 | inactive
CCOC(=O)CC1C(=O)NCCN1C(=O)COc1ccc(Br)cc1C (configuration not stated) | inactive
CCC(c1nnnn1C1CCCC1)N(Cc1cccs1)Cc1cc2cccc(C)c2[nH]c1=O (configuration not stated) | active
COc1cccc(CN2CCN(Cc3ccc4cccc(F)c4n3)CC2CCO)c1 (configuration not stated) | inactive
Cc1cc(C)nc(N/N=C/c2c(CO)cnc(C)c2O)n1 | active

q: Recorded test call requested for Nc1ccc(Nc2cc(O)c3ncccc3c2)cc1
a: active

q: Another compound to check: COc1ccc(C(=O)NC(=S)N2CCNC(=O)C2CC(=O)OC(C)C)cc1 (configuration not stated)
a: inactive

q: Another compound to check: Cc1ccc2nc(-c3ccncc3)cc(C(=O)Nc3ccncc3)c2c1
a: active
